This collection of values is drawn from paper PMC9482650.

Assay System: SCRIB_1 PDZ (Homo sapiens, UniProt Q14160)
Sequence (Q14160 728-815 limits assumed): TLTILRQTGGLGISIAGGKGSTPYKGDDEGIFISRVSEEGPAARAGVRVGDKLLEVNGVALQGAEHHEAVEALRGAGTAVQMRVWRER
Protocol: Holdup assay
Format: binding
Cond: PBM motif of the named protein vs SCRIB_1 PDZ; read-out: pKd values – domain-motif, SCRIB_1 (converted)
Ends that are not written are not given here.
Value Type: Kd (µM)
One number for each entry, in µM.

FHPLGADSQV [SLC2A1]    95.5
LDSQIQETSI [MAP4]    2.75
EVVHTPETSV [SLC16A3]    8.32
DTKNYKQTSV [CRIPT]    13.2

Turning now to a further sequence:
Recorded Kd (sequence QSARYRDTEL [TJP2 (ZO2)] ): 34.7
